Entries and their measured pIC50 follow.
System: Human LBAT (Homo sapiens, UniProt Q14973)
Construct: kept under Geneticin selection
Sequence (Q14973 whole entry): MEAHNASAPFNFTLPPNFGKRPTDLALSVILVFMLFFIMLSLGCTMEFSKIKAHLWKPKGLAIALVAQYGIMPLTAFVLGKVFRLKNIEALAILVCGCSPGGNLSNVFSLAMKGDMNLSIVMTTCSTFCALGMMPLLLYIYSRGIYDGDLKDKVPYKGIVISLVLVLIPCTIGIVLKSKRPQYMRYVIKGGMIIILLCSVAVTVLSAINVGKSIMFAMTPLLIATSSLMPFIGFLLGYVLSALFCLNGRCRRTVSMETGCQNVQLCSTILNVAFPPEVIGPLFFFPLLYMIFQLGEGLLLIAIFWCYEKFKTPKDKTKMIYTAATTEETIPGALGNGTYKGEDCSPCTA
Method Summary: LBAT (h/m) assay, human LBAT-overexpressing cells, 3H-taurocholic acid uptake
Assay Setup: 0.3 μM 3H-taurocholic acid and 7.5 μM cold taurocholic acid, 20 minutes, read-out: hLBAT IC50
Entry type: numeric. Quantity: pIC50, the -log10 of concentration in molar units.

// known answers, use as guide
# Molecule, Result Type, Meas Value
measured = [
    ("CCCCC1CN(c2ccccc2)c2cc(SC)c(OCC(OC)C(=O)O)cc2S(=O)(=O)N1C (single isomer, unassigned) [32, diastereomer 2]", "pIC50", 7.49),
    ("CCCCC1CN(c2ccccc2)c2cc(SC)c(OCC(C)(OC)C(=O)O)cc2S(=O)(=O)N1C (single isomer, unassigned) [24, diastereomer 2]", "pIC50", 7.80),
]

For the next question, use this molecule.
In: So what does the record say about pIC50 for CCCCC1CN(c2ccccc2)c2cc(SCC)c(OCC(C)(C)C(=O)O)cc2S(=O)(=O)N1C (stereo not drawn) [Example 5] ?
Out: 8.05
